Each recorded value in this set is attributed to PubChem BioAssay (NCI).

# System: CCRF-CEM leukemia
# Experiment Summary: NCI-60 one-dose screen, 48 h (100 = growth as untreated, 0 = no growth, -100 = all killed)
# Conditions Used: 10 µM
This is part of a sample that, as a whole, favours compounds with a hit. Of some 83,000 tested, about 20% had one in any assay.
Classification field: 1.0 = growth at or over 30%; 0.0 = growth under 30%.

Solved cases (2 shown):
Task item: // inclusive: growth at least 30%? input: "COCCOCCOCCOc1ccc(-n2cc(CCCN(CCNc3ccnc4cc(Cl)ccc34)C(=O)CCC(=O)O[C@@H]3O[C@@H]4OC5(C)CC[C@H]6[C@H](C)CC[C@@H]([C@H]3C)[C@@]46OO5)nn2)cc1"
Reply: 0.0

Task item: // inclusive: growth at least 30%? input: "O=C(/C=C/c1ccc(Cl)cc1Cl)c1nc2ccccc2n1Cc1ccc(F)cc1"
Reply: 0.0

Continuing:
Task item: // inclusive: growth at least 30%? input: CC12OOC(C)(OO1)C2CCC(=O)NCCNc1ccnc2cc(Cl)ccc12 (centres undefined)
Reply: 1.0

Task item: // inclusive: growth at least 30%? input: "Cc1ccc2[nH]c(=S)n(-c3ccc(F)cc3)c(=O)c2c1"
Reply: 1.0

---

# System: SK-MEL-2 melanoma
# Experiment Summary: NCI-60 one-dose screen, 48 h (100 = growth as untreated, 0 = no growth, -100 = all killed)
# Conditions Used: 10 µM
Compounds without any hit were thinned out: in the full panel of roughly 83,000, 20% have a hit.
Response field class: string, computed from recorded growth by ranges low end: < -40%; middle: ≥ -40% and < 20%; high end: ≥ 20%

Solved cases (4 shown):
Task item: Hey, which category is "O=C(/C=C/c1ccco1)c1nc2ccccc2n1Cc1ccc(F)cc1" in, do you know?
Reply: high end

Task item: Hey, which category is "Cc1ccc2[nH]c(=S)n(-c3ccc(F)cc3)c(=O)c2c1" in, do you know?
Reply: high end

Task item: Hey, which category is "COC(=O)CCn1c(-c2ccc(-n3cc(-c4ccc(O[C@H]5O[C@@H]6OC7(C)CC[C@H]8[C@H](C)CC[C@@H]([C@H]5C)[C@@]68OO7)cc4)nn3)cc2)nc2ccccc21" in, do you know?
Reply: middle

Task item: Hey, which category is CC12OOC(C)(OO1)C2CCC(=O)OCCNc1ccnc2cc(Cl)ccc12 (stereo not given) in, do you know?
Reply: high end

Continuing:
Task item: Hey, which category is "CC(C)N=C([Se])NC(=O)c1cccs1" in, do you know?
Reply: low end

Task item: Hey, which category is "CC(=O)Oc1ccccc1C(=O)NC([Se])=NC1CCCCC1" in, do you know?
Reply: low end

Task item: Hey, which category is "CC[C@]12C=CCN3CC[C@@]4(c5ccc(OC)cc5N(C)[C@H]4[C@@](O)(C(=O)OC)[C@@H]1OC(=O)CCCC[P+](C1CCCCC1)(C1CCCCC1)C1CCCCC1)[C@@H]32" in, do you know?
Reply: low end

Task item: Hey, which category is "COc1cc2cc(C(=O)N3C[C@@H](CCl)c4c3cc(OC(=O)N3CCN(C)[C@@H]5CSSC[C@@H]53)c3ccccc43)[nH]c2c(OC)c1OC" in, do you know?
Reply: low end

Task item: Hey, which category is "COc1ccc(OC)c(/C=C/C(=O)c2nc3ccccc3n2Cc2ccc(F)cc2)c1" in, do you know?
Reply: middle

Task item: Hey, which category is "COCCOCCOCCOc1ccc(-n2cc(-c3ccc(O[C@H]4O[C@@H]5OC6(C)CC[C@H]7[C@H](C)CC[C@@H]([C@H]4C)[C@@]57OO6)cc3)nn2)cc1" in, do you know?
Reply: middle
